- Assayed target: T1, rat-his
- T1 construct: soluble analyte of the Biacore runs; also called rSCRx91-his; rBMPR1B-CHis
- T1 chain: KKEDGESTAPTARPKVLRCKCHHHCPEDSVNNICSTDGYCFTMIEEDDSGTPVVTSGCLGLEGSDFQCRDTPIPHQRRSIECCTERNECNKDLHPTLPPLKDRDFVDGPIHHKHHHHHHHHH
- Protocol details: Biacore
Record form. Attribute: pKd. Fill in for each entry.
Scale note: pKd = -log10(concentration in M).

The measured pKd associated with SC91.20 (antibody, V domains shown) VH: QVQLQQPGAEVVRPGASLKLSCKASGYTFTSYWMQWIKQRPGQGLEWIGEIDPSDNYTMYNQKFKGKATLTVDTSSSTAYMQLSSLTSEDSAVYFCARFGFYVDYWGQGTTLTVSS VL: DVVMTQTPLSLPVSLGDQASISCRSSQSLVHSTGNTYLHWYLQKPGQSPNLLIYKVSNRFSGVPDRFSGSGSGTDFTLKISRVEAEDLGVYFCSQSTHVPFTFGSGTKLEIK reads 8.72

Lab note: SC91.9 (murine anti-BMPR1B antibody) (antibody, V domains shown, Murine hybridoma antibody) VH: QVQLQQPGAELVKPGASVKLSCKASGYTFISYWMHWVKQRPGQGLEWIGMIHPNSGSTNYNESFKSKATLTVDKSSSTAYMQLSSLTSEDSAVYYCARDLLIATVVVTPYFAYWGQGTILTVSS VL: DIQMTQTTSSLSASLGDRVTISCRASQDISNFLNWYQQKPDGTIKFLIYYTSRLHSGVPSRFSGSGSGTDYSLTIRNLEQEDIATYFCQQGNTLPYTFGGGTKLEIK gave pKd of 9.74

Form field pKd, entry SC91.27 (murine anti-BMPR1B antibody) (antibody, V domains shown, Murine hybridoma antibody with the same VL as SC91.20) VH: QVQLQQPGAEVVKPGASVKLSCKASGYTFTNYWMQWVKQRPGQGLEWIGEIDPSDRYTMYNQKFKGKATLIVDTSSSTAYMQLSSLTSEDSAVYFCARFGYYVDYWGQGTTLTVSS VL: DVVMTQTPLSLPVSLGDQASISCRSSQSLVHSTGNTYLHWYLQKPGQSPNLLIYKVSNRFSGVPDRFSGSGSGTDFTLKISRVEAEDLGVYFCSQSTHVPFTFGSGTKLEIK : 8.67

Summary for this binder, SC91.1 (murine anti-BMPR1B antibody) (antibody, V domains shown, Murine hybridoma antibody with a kappa light chain) VH: QVQLQQPGAELVKPGASVKLSCKASGYTFTSYWMQWVKQRPGQGLEWIGEIDPSDNYTLYNQKFKGKATLTVDTSSSTAYMQLSSLTSEDSAVYYCARFGYYVDYWGLGTTLTVSS VL: DVVMTQTPLSLPVSLGDQASIFCRSSQSLVHSTGNTYLHWYLQKPGQSPKLLIYKVSNRFSGVPDRFSGSGSGTDFTLKISRVEAEDLGVYFCSQSTHVPFTFGSGTKLEIK : pKd is 8.48

This collection of values is drawn from patent US20190153103A1.
